Cited source: the supplement of paper PMC9112550

Please go through the items and note down their shrunken log2 fold change.
Test system: Escherichia coli TOP10
protocol_summary: shrunken log2 fold change of peptide-encoding DNA abundance (4.5 h post-induction vs induction); higher = less antimicrobial activity (less host growth inhibition)
condition_parameters: time post-induction: 4.5 h; library: site-saturation at positions 5, 18, 19, 20

// batch mode: one shrunken log2 fold change value per listed entry
1. RRIRNRPPRLPRPRPRPHYYPRP
2. RRIRQRPPRLPRPRPRPKRLPRP
3. RRIRVRPPRLPRPRPRPMHQPRP
4. RRIRKRPPRLPRPRPRPRLNPRP
5. RRIRTRPPRLPRPRPRPFQTPRP
6. RRIRMRPPRLPRPRPRPFHQPRP
7. RRIRHRPPRLPRPRPRPDLTPRP

*A*
-0.356
0.281
0.02
0.489
0.0582
-0.0752
-0.000777

----------
Test system: Escherichia coli TOP10
protocol_summary: shrunken log2 fold change of peptide-encoding DNA abundance (4.5 h post-induction vs induction); higher = less antimicrobial activity (less host growth inhibition)
condition_parameters: time post-induction: 4.5 h; library: site-saturation at positions 5, 18, 19, 20
readout_label: shrunken log2 fold change
Numbers only.

Example results:
>  <sequence_input>
RRIRDRPPRLPRPRPRPHGTPRP

>  <assayed_system>
Escherichia coli TOP10

>  <readout_label>
shrunken log2 fold change

>  <number>
0.0175

$$$$
>  <sequence_input>
RRIRKRPPRLPRPRPRPEICPRP

>  <assayed_system>
Escherichia coli TOP10

>  <readout_label>
shrunken log2 fold change

>  <number>
0.661

$$$$
>  <sequence_input>
RRIRPRPPRLPRPRPRPDETPRP

>  <assayed_system>
Escherichia coli TOP10

>  <readout_label>
shrunken log2 fold change

>  <number>
-0.088

$$$$
>  <sequence_input>
RRIRFRPPRLPRPRPRPELMPRP

>  <assayed_system>
Escherichia coli TOP10

>  <readout_label>
shrunken log2 fold change

>  <number>
0.179

$$$$
>  <sequence_input>
RRIRWRPPRLPRPRPRPEYRPRP

>  <assayed_system>
Escherichia coli TOP10

>  <readout_label>
shrunken log2 fold change

>  <number>
0.0624

$$$$

Please go through the list and note shrunken log2 fold change for each sequence.
1. RRIRMRPPRLPRPRPRPFYIPRP
2. RRIRMRPPRLPRPRPRPKIKPRP
3. RRIRTRPPRLPRPRPRPAAAPRP

*A*
1: -0.31; 2: 0.248; 3: 0.618

----------
Consider the following sequences; for each one, report its shrunken log2 fold change.
Tested on: Escherichia coli TOP10
protocol_summary: shrunken log2 fold change of peptide-encoding DNA abundance (4.5 h post-induction vs induction); higher = less antimicrobial activity (less host growth inhibition)
condition_parameters: time post-induction: 4.5 h; library: site-saturation at positions 5, 18, 19, 20
Answers are plain numbers.

Previously resolved entries follow.
>  <sequence_input>
RRIRDRPPRLPRPRPRPYCKPRP

>  <assayed_system>
Escherichia coli TOP10

>  <number>
0.0343

$$$$
>  <sequence_input>
RRIRSRPPRLPRPRPRPKDTPRP

>  <assayed_system>
Escherichia coli TOP10

>  <number>
-0.145

$$$$
>  <sequence_input>
RRIRLRPPRLPRPRPRPSPFPRP

>  <assayed_system>
Escherichia coli TOP10

>  <number>
-0.183

$$$$
>  <sequence_input>
RRIRPRPPRLPRPRPRPAMIPRP

>  <assayed_system>
Escherichia coli TOP10

>  <number>
-0.26

$$$$
>  <sequence_input>
RRIRIRPPRLPRPRPRPWFDPRP

>  <assayed_system>
Escherichia coli TOP10

>  <number>
-0.184

$$$$

Give me shrunken log2 fold change for each of these sequences, listed below.
1. RRIRYRPPRLPRPRPRPHPCPRP
2. RRIRSRPPRLPRPRPRPLYRPRP
3. RRIRCRPPRLPRPRPRPSINPRP

*A*
-0.125
-0.346
-0.86

----------
Can you tell me shrunken log2 fold change for the items I'm about to list?
System: Escherichia coli TOP10
protocol_summary: shrunken log2 fold change of peptide-encoding DNA abundance (4.5 h post-induction vs induction); higher = less antimicrobial activity (less host growth inhibition)
condition_parameters: time post-induction: 4.5 h; library: site-saturation at positions 5, 18, 19, 20
Numbers only.

Consider the following illustrative entries.
>  <sequence_input>
RRIRKRPPRLPRPRPRPHPGPRP

>  <shrunken log2 fold change>
0.293

$$$$
>  <sequence_input>
RRIRGRPPRLPRPRPRPHFNPRP

>  <shrunken log2 fold change>
0.232

$$$$
>  <sequence_input>
RRIRARPPRLPRPRPRPINPPRP

>  <shrunken log2 fold change>
0.0479

$$$$
>  <sequence_input>
RRIRMRPPRLPRPRPRPPYVPRP

>  <shrunken log2 fold change>
-0.0137

$$$$
>  <sequence_input>
RRIRQRPPRLPRPRPRPVMTPRP

>  <shrunken log2 fold change>
-0.172

$$$$

// for each sequence in input: emit shrunken log2 fold change
1. RRIRMRPPRLPRPRPRPGATPRP
2. RRIRCRPPRLPRPRPRPDLYPRP
3. RRIRKRPPRLPRPRPRPMVPPRP

*A*
1.38
-0.0793
-0.043

----------
Test system: Escherichia coli TOP10
protocol_summary: shrunken log2 fold change of peptide-encoding DNA abundance (4.5 h post-induction vs induction); higher = less antimicrobial activity (less host growth inhibition)
condition_parameters: time post-induction: 4.5 h; library: site-saturation at positions 5, 18, 19, 20
Hi all, reminder that labels come from shrunken log2 fold change, split as low band = under -0.2, middle band = from -0.2 up to 0.09, high band = 0.09 and over

*Q* Assign a bin to RRIRGRPPRLPRPRPRPYSTPRP
*A* middle band

*Q* # bin label for RRIRGRPPRLPRPRPRPSVMPRP
*A* high band

*Q* Just checking, what class would you give RRIRQRPPRLPRPRPRPLLEPRP here?
*A* high band

*Q* Could you tell me which band RRIRKRPPRLPRPRPRPVCRPRP belongs to?
*A* high band

*Q* Please indicate the class for RRIRVRPPRLPRPRPRPMNWPRP based on its shrunken log2 fold change.
*A* low band

*Q* Hello team, could you let me know which band the following sequence falls into: RRIRERPPRLPRPRPRPPNIPRP
*A* low band

*Q* Which bin should I file RRIRNRPPRLPRPRPRPLKWPRP under?
*A* middle band

*Q* Which shrunken log2 fold change category applies to RRIRWRPPRLPRPRPRPNPMPRP here?
*A* middle band

*Q* Hey, which category is RRIRSRPPRLPRPRPRPLAMPRP in, do you know?
*A* middle band

*Q* Which category fits this record: RRIRSRPPRLPRPRPRPPFMPRP
*A* middle band

*Q* Determine which band this sequence sits in: RRIRTRPPRLPRPRPRPCFLPRP
*A* low band

*Q* Kindly state the category for this sequence: RRIRCRPPRLPRPRPRPQNQPRP
*A* middle band

*Q* // return the class label for RRIRRRPPRLPRPRPRPDVYPRP
*A* middle band

*Q* Bin this entry: RRIRARPPRLPRPRPRPFAYPRP
*A* low band

*Q* For RRIRGRPPRLPRPRPRPRKRPRP , which shrunken log2 fold change bin applies?
*A* high band

----------
Test system: Escherichia coli TOP10;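 further: peptides expressed intracellularly from a pBAD plasmid library in pooled LB shake-flask culture, induced with 0.3% L-arabinose, DNA abundance read by NGS, three biological replicates, DESeq2 with apeglm shrinkage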
protocol_summary: shrunken log2 fold change of peptide-encoding DNA abundance (4.5 h post-induction vs induction); higher = less antimicrobial activity (less host growth inhibition)
condition_parameters: time post-induction: 4.5 h; library: site-saturation at positions 5, 18, 19, 20
The label depends only on shrunken log2 fold change: Criterion met if it is at least -0.04, Criterion not met if it is smaller.

Solved entries (count: 3):
>  <sequence_input>
RRIRQRPPRLPRPRPRPYTDPRP

>  <qualitative_label>
Criterion not met

$$$$
>  <sequence_input>
RRIRARPPRLPRPRPRPESTPRP

>  <qualitative_label>
Criterion met

$$$$
>  <sequence_input>
RRIRIRPPRLPRPRPRPKGPPRP

>  <qualitative_label>
Criterion not met

$$$$

*Q* Evaluate RRIRFRPPRLPRPRPRPGFAPRP : shrunken log2 fold change at minimum -0.04?
*A* Criterion met

*Q* Hi, just wondering whether RRIRQRPPRLPRPRPRPRSRPRP shows shrunken log2 fold change of -0.04 or higher.
*A* Criterion met

*Q* Does the reported shrunken log2 fold change for RRIRYRPPRLPRPRPRPCRYPRP fall at or above the -0.04 mark?
*A* Criterion not met

*Q* Is reported shrunken log2 fold change greater than or equal to -0.04 here: RRIRRRPPRLPRPRPRPMARPRP
*A* Criterion met

*Q* In plain terms: is recorded shrunken log2 fold change at least -0.04 for RRIRYRPPRLPRPRPRPLCKPRP ?
*A* Criterion not met

*Q* Textbook exercise: given the entry RRIRDRPPRLPRPRPRPNATPRP , state whether its shrunken log2 fold change is greater than or equal to -0.04.
*A* Criterion met

*Q* Quick check, shrunken log2 fold change >= -0.04? RRIRERPPRLPRPRPRPPIDPRP
*A* Criterion met

*Q* Does the reported shrunken log2 fold change for RRIRRRPPRLPRPRPRPASPPRP fall at or above the -0.04 mark?
*A* Criterion met

*Q* hey, is shrunken log2 fold change for this one >= -0.04? RRIRYRPPRLPRPRPRPMSQPRP
*A* Criterion not met

*Q* Decide: is the reported value of shrunken log2 fold change for RRIRHRPPRLPRPRPRPCRMPRP equal to or greater than -0.04?
*A* Criterion met

*Q* Is reported shrunken log2 fold change greater than or equal to -0.04 here: RRIRGRPPRLPRPRPRPKSIPRP
*A* Criterion not met

*Q* Is shrunken log2 fold change at least -0.04? Consider RRIRCRPPRLPRPRPRPQMFPRP
*A* Criterion not met
